assay: PK profile in Wistar rats (plasma, brain, urine); type: in vivo, rat; details: male, Wistar, rat, po; brain; p.o. 5 mg/kg
measured-quantity: MRT last (h)
Unit h implied. Number only.

// lookup MRT last for COc1cc(SC(F)(F)F)c(OC)cc1CCN 3.3

* * *

Assay: PK profile in Wistar rats (plasma, brain, urine)
Type: in vivo, rat
Conditions: male, Wistar, rat; brain; IV 1 mg/kg
Protocol: PK profile in Rats. To evaluate the full PK profile for I-1 in rats, plasma and brain pharmacokinetic and urinary excretion of I-1 in male Wistar rats after IV dose at 1 mg/kg and an oral (p.o.) dose at 5 mg/kg administration were determined. Plasma, brain, and urine samples were collected at specified time points after single dose administration of I-1 and quantification of I-1 in the samples was accomplished using LC-MS/MS. The pharmacokinetic parameters were determined as described above.
measured-quantity: half-life
Answer format: number, then unit.

Recorded half-life of COc1cc(SC(F)(F)F)c(OC)cc1CCN , please. 2.44 h

* * *

assay: PK profile in C57BL/6J mice (plasma, brain); assay type: in vivo, mouse; conditions: male, C57BL/6J, mouse, brain/plasma, sc; s.c. 3 mg/kg; read-out: Brain/Plasma ratio (AUCINF)
measured-quantity: Kp
When you answer, write just the number.

Which Kp value belongs to COc1cc(SC(F)(F)F)c(OC)cc1CCN ? 30.7

* * *

target: human alpha2A receptor (Homo sapiens (Human), UniProt P08913); assay: alpha2A receptor function
Sequence (P08913 whole entry): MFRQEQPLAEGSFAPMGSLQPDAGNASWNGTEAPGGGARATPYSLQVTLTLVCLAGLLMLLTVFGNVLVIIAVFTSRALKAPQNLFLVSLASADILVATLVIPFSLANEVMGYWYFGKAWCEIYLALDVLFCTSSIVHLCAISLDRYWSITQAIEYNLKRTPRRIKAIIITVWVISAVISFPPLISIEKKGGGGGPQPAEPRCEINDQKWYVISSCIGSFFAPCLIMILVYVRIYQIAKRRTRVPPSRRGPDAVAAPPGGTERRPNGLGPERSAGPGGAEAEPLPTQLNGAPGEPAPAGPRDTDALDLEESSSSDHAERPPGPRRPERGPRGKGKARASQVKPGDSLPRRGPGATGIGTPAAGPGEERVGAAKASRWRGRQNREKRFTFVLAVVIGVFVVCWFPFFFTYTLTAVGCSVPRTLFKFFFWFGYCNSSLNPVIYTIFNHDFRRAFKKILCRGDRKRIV
measured-quantity: pEC50
// pEC50 here means minus log10 of the molar concentration (mol/L)

Under human alpha2A receptor (Homo sapiens (Human), UniProt P08913): pEC50 value of COc1cc(SC(F)(F)F)c(OC)cc1CCN [Compound I-1] ? 6.78

* * *

assay: PK profile in C57BL/6J mice (plasma, brain); assay type: in vivo, mouse; settings: male, C57BL/6J, mouse, sc; plasma; s.c. 3 mg/kg
measured-quantity: MRT last (h)
Field: numeric (h). Do not append units.

Entry under review: COc1cc(SC(F)(F)F)c(OC)cc1CCN . Reported MRT last? 2.96

* * *

Assay: PK profile in Wistar rats (plasma, brain, urine)
Type: in vivo, rat
Settings: male, Wistar, rat; brain; IV 1 mg/kg
Experimental: PK profile in Rats. To evaluate the full PK profile for I-1 in rats, plasma and brain pharmacokinetic and urinary excretion of I-1 in male Wistar rats after IV dose at 1 mg/kg and an oral (p.o.) dose at 5 mg/kg administration were determined. Plasma, brain, and urine samples were collected at specified time points after single dose administration of I-1 and quantification of I-1 in the samples was accomplished using LC-MS/MS. The pharmacokinetic parameters were determined as described above.
measured-quantity: AUC(0-inf) (ng·h/mL)
Your answer is read as ng·h/mL, so omit the unit and give the number.

What measured AUC(0-inf) goes with COc1cc(SC(F)(F)F)c(OC)cc1CCN [Compound I-1] ? 3260

* * *

biological target: 5-HT2A receptor (Homo sapiens (Human), UniProt P28223); experiment: 5-HT2A functional assay, IP1 (IPOne); assay type: cell-based
measured-quantity: pEC50
FYI, pEC50 means -log10 of a concentration in mol per litre.

Look up pEC50 for this compound: COc1cc(SCCC(F)F)c(OC)cc1CCN [Compound I-3] 8.00

And COc1cc(SC(F)(F)F)c(OC)cc1CCN [Compound I-1] ? 8.39

Input COc1cc(SC(F)F)c(OC)cc1CCN [Compound I-8] 8.28

* * *

target: human 5-HT2B receptor (Homo sapiens (Human), UniProt P41595); assay: 5-HT2B functional assay, IP1 (IPOne); format: cell-based; settings: IP1 assay; relative to 5-HT
Sequence (P41595 whole entry, looked up): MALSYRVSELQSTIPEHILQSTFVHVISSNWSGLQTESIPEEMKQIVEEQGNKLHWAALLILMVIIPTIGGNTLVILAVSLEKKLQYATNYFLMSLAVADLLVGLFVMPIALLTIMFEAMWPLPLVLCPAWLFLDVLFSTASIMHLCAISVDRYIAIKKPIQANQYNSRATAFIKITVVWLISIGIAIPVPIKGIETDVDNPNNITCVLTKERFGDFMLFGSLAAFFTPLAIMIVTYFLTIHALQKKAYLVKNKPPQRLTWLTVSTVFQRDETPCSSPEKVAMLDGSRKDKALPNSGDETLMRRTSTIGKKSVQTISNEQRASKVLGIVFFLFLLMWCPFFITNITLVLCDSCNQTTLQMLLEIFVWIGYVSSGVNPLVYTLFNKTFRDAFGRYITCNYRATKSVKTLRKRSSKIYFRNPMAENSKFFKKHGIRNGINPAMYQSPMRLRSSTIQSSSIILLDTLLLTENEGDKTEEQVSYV
measured-quantity: Emax (%)
Quick reminder: number only, in %, skip the unit.

compound	result-value
COc1cc(SCC(F)(F)C(F)F)c(OC)cc1CCN [Compound I-10]	84
COc1cc(C(C)(C)C)c(OC)cc1CCN [VI-1]	87

Continue with the compound presented below.
Checklist item: Emax tested on human 5-HT2B receptor (Homo sapiens (Human), UniProt P41595), entry COc1cc(SC(F)F)c(OC)cc1CCN [Compound I-8] , value? 87

* * *

experiment: PK profile in Wistar rats (plasma, brain, urine); format: in vivo, rat; settings: male, Wistar, rat; plasma; IV 1 mg/kg
measured-quantity: AUC(0-inf) (ng·h/mL)
Just the number in ng·h/mL, nothing appended.

Tell me the measured AUC(0-inf) of COc1cc(SC(F)(F)F)c(OC)cc1CCN [Compound I-1] , please. 50.7

* * *

assay: Plasma and brain concentrations after dosing in mice (screening); format: in vivo, mouse; conditions: mouse, plasma, sc; mice, 3 mg/kg s.c.; read-out: Plasma, 160 min
measured-quantity: concentration at 160 min (nM)
Give a bare numeral; the unit nM is implied.

Record excerpt, results attached:
smiles-text	result-value
COc1cc(SC(F)(F)F)c(OC)cc1CCN	300
[2H]C([2H])([2H])Oc1cc(SC(F)(F)F)c(OC([2H])([2H])[2H])cc1CCN	360
COc1cc(SCCC(F)F)c(OC)cc1CCN	55
COc1cc(C(C)(C)C)c(OC)cc1CCN	80
COc1cc(SCC(F)(F)C(F)F)c(OC)cc1CCN	100

Field: next compound
Entry COc1cc(SC(F)F)c(OC)cc1CCN has what concentration at 160 min? 30

* * *

assay: PK profile in C57BL/6J mice (plasma, brain); assay type: in vivo, mouse; conditions: male, C57BL/6J, mouse, sc; brain; s.c. 3 mg/kg
measured-quantity: Tmax (h)
Express the result in h but write the number alone.

Fill in the blank: the reported Tmax of COc1cc(SC(F)(F)F)c(OC)cc1CCN [Compound I-1] is ____. 2

* * *

assay: PK profile in C57BL/6J mice (plasma, brain); type: in vivo, mouse; settings: male, C57BL/6J, mouse, po; brain; p.o. 3 mg/kg
measured-quantity: Cmax (ng/mL)
Quick note: give the figure in ng/mL, leave out the unit.

Would you mind telling me what Cmax value was observed for COc1cc(SC(F)(F)F)c(OC)cc1CCN [Compound I-1] ? 2370

* * *

experiment: PK profile in Wistar rats (plasma, brain, urine); assay type: in vivo, rat; conditions: male, Wistar, rat, po; plasma; p.o. 5 mg/kg
measured-quantity: MRT last
Give the number first and the unit second.

Bench note: what MRT last did COc1cc(SC(F)(F)F)c(OC)cc1CCN [Compound I-1] show? 2.25 h

* * *

target: 5-HT2A receptor (Homo sapiens (Human), UniProt P28223); experiment: 5-HT2A radioligand competition binding ([3H]LSD or [3H]ketanserin)

smiles-text	target	affinity at 5-HT2A receptors (in words)
COc1cc(SCCC(F)(F)F)c(OC)cc1CCN	5-HT2A receptor (Homo sapiens (Human), UniProt P28223)	high affinity
COc1cc(SCCCF)c(OC)cc1CCN	5-HT2A receptor (Homo sapiens (Human), UniProt P28223)	high affinity

* * *

test: PK in Sprague-Dawley rats (plasma, brain, CSF); format: in vivo, rat; settings: male, Sprague-Dawley, rat; CSF; IV 1 mg/kg
measured-quantity: Tmax
Answer format: value, then unit.

I'd like to know its Tmax. The molecule in question is COc1cc(SC(F)(F)F)c(OC)cc1CCN 4.98 min

* * *

assay: PK in Sprague-Dawley rats (plasma, brain, CSF); type: in vivo, rat; conditions: male, Sprague-Dawley, rat; plasma; IV 1 mg/kg
measured-quantity: AUC(0-t)
Answer format: number, then unit.

Report AUC(0-t) for COc1cc(SC(F)(F)F)c(OC)cc1CCN [Compound I-1] please. 207 ng·h/mL

* * *

molecular target: human 5-HT2B receptor (Homo sapiens (Human), UniProt P41595); experiment: 5-HT2B functional assay, IP1 (IPOne); assay type: cell-based; details: IP1 assay; read-out: 5-HT2B EC50
Excerpt: […]
measured-quantity: EC50

Given COc1cc(SC(F)(F)F)c(OC)cc1CCNCC1CC1 [Compound V-1] , state its recorded EC50. > 1000 nM

* * *

target: 5-HT2C receptor (Homo sapiens (Human)); assay: 5-HT2C functional assay, TRUPATH (BRET); assay type: cell-based
Sequence (P28335 whole entry, looked up): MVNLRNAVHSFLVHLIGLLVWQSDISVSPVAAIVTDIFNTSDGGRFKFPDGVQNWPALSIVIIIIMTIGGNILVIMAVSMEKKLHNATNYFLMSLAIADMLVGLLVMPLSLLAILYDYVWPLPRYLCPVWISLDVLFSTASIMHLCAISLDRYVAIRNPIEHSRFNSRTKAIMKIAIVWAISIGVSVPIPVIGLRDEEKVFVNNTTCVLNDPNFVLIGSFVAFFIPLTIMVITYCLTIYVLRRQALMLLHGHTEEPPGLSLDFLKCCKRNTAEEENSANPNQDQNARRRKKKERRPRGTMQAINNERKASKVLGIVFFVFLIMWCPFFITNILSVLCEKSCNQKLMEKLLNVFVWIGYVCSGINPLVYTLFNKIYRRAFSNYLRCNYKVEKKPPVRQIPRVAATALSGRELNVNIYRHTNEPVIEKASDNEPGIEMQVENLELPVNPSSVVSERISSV
measured-quantity: EC50 (nM)
Please state the figure in nM; there is no need to write the unit.

Which value of EC50 has been reported for COc1cc(SC(F)(F)F)c(OC)cc1CCNCC1CC1 [Compound V-1] in the records? 46

* * *

assay: PK profile in C57BL/6J mice (plasma, brain); format: in vivo, mouse; conditions: male, C57BL/6J, mouse, po; plasma; p.o. 3 mg/kg
measured-quantity: MRT last
A complete answer gives the number followed by the unit.

So what does the record say about MRT last for COc1cc(SC(F)(F)F)c(OC)cc1CCN [Compound I-1] ? 3.01 h

* * *

biological target: UniProt P28223; assay: 5-HT2A functional assay, IP1 (IPOne); format: cell-based; conditions: IP1 assay; relative to 5-HT
measured-quantity: Emax (%)
Provide only the numeric value, understood in %.

The cases that follow already have their Emax on record.
smiles-text	target	measurement-units	result-value
COc1cc(SC(F)(F)F)c(OC)cc1CCNCC1CC1	UniProt P28223	%	31
COc1cc(SC(F)F)c(OC)cc1CCN	UniProt P28223	%	99
COc1cc(C(C)(C)C)c(OC)cc1CCN	UniProt P28223	%	87
COc1cc(SCC(F)(F)C(F)F)c(OC)cc1CCN	UniProt P28223	%	76

Attention now shifts to the item below.
Dear colleague, I am looking for the recorded Emax of the following compound: COc1cc(SCCC(F)F)c(OC)cc1CCN 93
